molecular target: Aurora A (active), T288 phosphorylated (Homo sapiens); construct: For enzyme and DSF assays, full-length human Aurora A and Aurora B and 1–43 TPX2 were produced; made in house; host or cells: E. coli; experiment: Lanthascreen Eu Kinase FRET binding assay; details: T288 phosphorylated Aurora A; read-out: Aurora A (active) IC50 (μM), binding assay
Form field: IC50 (one value per entry).
Write it as a number; the unit nM goes unstated.

Q: Would you kindly share the measured IC50 for Nc1ncnc2c1ncn2C1OC(COP(=O)(O)OP(=O)(O)O)C(O)C1O (stereo not shown) [ADP] ?
Ans: 170

Q: Would you kindly share the measured IC50 for CC(C)(COP(=O)(O)OP(=O)(O)OCC1OC(n2cnc3c(N)ncnc32)C(O)C1O)C(O)C(=O)NCCC(=O)NCCS (stereo not shown) [dpCoA, dephospho-CoA] ?
Ans: 0.3

Q: Would you kindly share the measured IC50 for CC(C)(COP(=O)(O)OP(=O)(O)OC[C@H]1O[C@@H](n2cnc3c(N)ncnc32)[C@H](O)[C@@H]1OP(=O)(O)O)[C@@H](O)C(=O)NCCC(=O)NCCS [CoA, Coenzyme A] ?
Ans: 0.01

Q: Would you kindly share the measured IC50 for Nc1ncnc2c1ncn2[C@@H]1O[C@H](COP(=O)(O)OP(=O)(O)OP(=O)(O)O)[C@@H](O)[C@H]1O [ATP] ?
Ans: 200

----------
Target: Aurora A (inactive), unphosphorylated (PP1-treated) (Homo sapiens, UniProt O14965)
Construct: For enzyme and DSF assays, full-length human Aurora A and Aurora B and 1–43 TPX2 were produced; made in house; host or cells: E. coli
Assay: Lanthascreen Eu Kinase FRET binding assay
Procedure: A Lanthascreen Eu Kinase FRET Binding Assay (Invitrogen) was employed to determine IC50 values for the interaction of Aurora A with CoA, dpCoA, ATP, and ADP. […] Briefly, the time-resolved fluorescence resonance energy transfer assay (TR-FRET) was performed in black, low volume 384 well plates (Corning). […] The signal was measured at 665/620 nm emission ratio using BMG LABTECH plate reader (PHERAstar). […]
Measured quantity: IC50 (µM)
Write it as a number; the unit µM goes unstated.

Example compounds with recorded IC50:
[[record]]
compound = "CC(C)(COP(=O)(O)OP(=O)(O)OC[C@H]1O[C@@H](n2cnc3c(N)ncnc32)[C@H](O)[C@@H]1OP(=O)(O)O)[C@@H](O)C(=O)NCCC(=O)NCCS"
measured_quantity = "IC50"
numeric_result = 0.28

[[record]]
compound = "Nc1ncnc2c1ncn2[C@@H]1O[C@H](COP(=O)(O)OP(=O)(O)OP(=O)(O)O)[C@@H](O)[C@H]1O"
measured_quantity = "IC50"
numeric_result = 3


In the following, a different compound is considered.
Q: Would you kindly share the measured IC50 for Nc1ncnc2c1ncn2C1OC(COP(=O)(O)OP(=O)(O)O)C(O)C1O (stereo not shown) ?
Ans: 1.3

----------
Target: Aurora A (active) (Homo sapiens, UniProt O14965)
Construct: Bacterially expressed full-length His-Aurora A was used to determine the IC50 value for CoA; made in house; host or cells: E. coli BL21 (DE3) pLysS
Sequence (O14965 1-403): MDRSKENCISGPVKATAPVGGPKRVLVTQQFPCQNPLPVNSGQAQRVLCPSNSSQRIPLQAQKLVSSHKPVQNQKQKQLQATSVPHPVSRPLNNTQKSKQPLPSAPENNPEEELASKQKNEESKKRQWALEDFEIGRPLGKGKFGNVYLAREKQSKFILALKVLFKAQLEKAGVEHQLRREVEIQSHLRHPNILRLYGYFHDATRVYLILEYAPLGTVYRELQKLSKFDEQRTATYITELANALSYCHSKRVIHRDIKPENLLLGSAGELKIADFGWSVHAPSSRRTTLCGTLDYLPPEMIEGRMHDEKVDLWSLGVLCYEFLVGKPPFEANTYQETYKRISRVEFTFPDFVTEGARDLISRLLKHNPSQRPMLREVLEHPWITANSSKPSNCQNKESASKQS
Assay: In vitro Aurora A kinase assay (γ33P-ATP incorporation into myelin basic protein)
Type: biochemical
Details: 5 μM competing ATP; read-out: Aurora A (active) IC50 (μM), activity assay
Description: Profiling of 117 protein kinases with CoA, dpCoA and ADP was carried out at the International Centre for Protein Kinase Profiling at the University of Dundee. […] Aurora A kinase activity was assayed by measuring incorporation of γ^33P-ATP into myelin basic protein (Sigma). […] After washing twice in 1% phosphoric acid followed by two washes in distilled water, the papers were air dried and radioactivity was counted by a scintillation counter and recorded by Quantasmart version 2.03.
Measured quantity: IC50 (µM)
Write it as a number; the unit µM goes unstated.

Example compounds with recorded IC50:
[[record]]
compound = "CC(C)(COP(=O)(O)OP(=O)(O)OC[C@H]1O[C@@H](n2cnc3c(N)ncnc32)[C@H](O)[C@@H]1OP(=O)(O)O)[C@@H](O)C(=O)NCCC(=O)NCCS"
measured_quantity = "IC50"
numeric_result = 5

[[record]]
compound = "CC(C)(COP(=O)(O)OP(=O)(O)OCC1OC(n2cnc3c(N)ncnc32)C(O)C1O)C(O)C(=O)NCCC(=O)NCCS (stereo not drawn)"
measured_quantity = "IC50"
numeric_result = 17


In the following, a different compound is considered.
Q: Would you kindly share the measured IC50 for Nc1ncnc2c1ncn2C1OC(COP(=O)(O)OP(=O)(O)O)C(O)C1O (stereo not drawn) ?
Ans: 54
